Data credit: the DeepSol protein solubility set

# measurement-description: soluble on expression in E. coli; label from the status in PepcDB or PDB records

{"construct-sequence": "MGSDKIHHHHHHMVSRRISEIPISKTMELDAKAKALIKKGEDVINLTAGEPDFPTPEPVVEEAVRFLQKGEVKYTDPRGIYELREGIAKRIGERYKKDISPDQVVVTNGAKQALFNAFMALLDPGDEVIVFSPVWVSYIPQIILAGGTVNVVETFMSKNFQPSLEEVEGLLVGKTKAVLINSPNNPTGVVYRREFLEGLVRLAKKRNFYIISDEVYDSLVYTDEFTSILDVSEGFDRIVYINGFSKSHSMTGWRVGYLISSEKVATAVSKIQSHTTSCINTVAQYAALKALEVDNSYMVQTFKERKNFVVERLKKMGVKFVEPEGAFYLFFKVRGDDVKFCERLLEEKKVALVPGSAFLKPGFVRLSFATSIERLTEALDRIEDFLNSR", "soluble on expression in E. coli": "soluble"}
{"construct-sequence": "MTQFDKQYNSIIKDIINNGISDEEFDVRTKWDSDGTPAHTLSVISKQMRFDNSEVPILTTKKVAWKTAIKELLWIWQLKSNDVNDLNMMGVHIWDQWKQEDGTIGHAYGFQLGKKNRSLNGEKVDQVDYLLHQLKNNPSSRRHITMLWNPDELDAMALTPCVYETQWYVKHGKLHLEVRARSNDMALGNPFNVFQYNVLQRMIAQVTGYELGEYIFNIGDCHVYTRHIDNLKIQMEREQFEAPELWINPEVKDFYDFTIDDFKLINYKHGDKLLFEVAV", "soluble on expression in E. coli": "soluble"}
